# subject.of.test: human β-secretase (sBACE-Fc, soluble part AA 1-AA 460) (Homo sapiens (Human))
# Sequence (P56817 22-460): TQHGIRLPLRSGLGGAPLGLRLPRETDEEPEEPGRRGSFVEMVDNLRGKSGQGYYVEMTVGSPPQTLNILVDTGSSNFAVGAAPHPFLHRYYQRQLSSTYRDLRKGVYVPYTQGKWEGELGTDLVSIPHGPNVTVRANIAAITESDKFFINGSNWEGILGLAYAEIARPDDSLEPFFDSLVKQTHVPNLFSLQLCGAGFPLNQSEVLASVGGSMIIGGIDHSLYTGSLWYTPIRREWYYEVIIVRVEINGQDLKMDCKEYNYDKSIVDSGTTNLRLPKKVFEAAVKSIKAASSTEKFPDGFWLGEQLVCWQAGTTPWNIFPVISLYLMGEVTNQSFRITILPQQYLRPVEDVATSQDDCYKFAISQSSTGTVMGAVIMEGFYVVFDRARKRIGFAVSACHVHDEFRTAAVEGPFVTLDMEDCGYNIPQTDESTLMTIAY
# measurement.notes: TR-FRET assay
# Format: biochemical
# details: TruPoint BACE1 substrate 100 nM, pH 4.5, 15 min at r.t.
Listing: pIC50 of selected molecules
Note: pIC50 values are expressed as the negative base-10 logarithm of concentration in M.

[
  {
    "molecule": "CC#Cc1cncc(-c2ccc3c(c2)C2(C=C(F)C(N)=N2)[C@]2(CC[C@@H](OC)CC2)C3)c1 (some centres unmarked)",
    "pIC50": 6.59
  },
  {
    "molecule": "CC1(C)COc2ccc(-c3cncnc3)cc2C12C=C(F)C(N)=N2 (centres unmarked)",
    "pIC50": 6.11
  },
  {
    "molecule": "CC1(C)Cc2ccc(-c3cncnc3)cc2C12C=C(F)C(N)=N2 (centres unmarked)",
    "pIC50": 5.42
  },
  {
    "molecule": "CC1(C)COc2ccc(-c3cncc(F)c3)cc2C12C=C(F)C(N)=N2 (centres unmarked)",
    "pIC50": 6.11
  },
  {
    "molecule": "CO[C@H]1CC[C@@]2(CC1)Cc1ccc(-c3cncnc3)cc1C21C=C(F)C(N)=N1 (some centres unmarked)",
    "pIC50": 5.71
  },
  {
    "molecule": "CC#Cc1cncc(-c2ccc3c(c2)C2(C=C(F)C(N)=N2)[C@]2(CC[C@H](OC)CC2)C3)c1 (some centres unmarked)",
    "pIC50": 7.74
  },
  {
    "molecule": "CO[C@H]1CC[C@]2(CC1)Oc1ccc(-c3cc(F)cc(C#N)c3)cc1C21C=C(F)C(N)=N1 (some centres unmarked)",
    "pIC50": 7.15
  }
]

Then this molecule:
Given the entry CC1(C)COc2ccc(-c3cc(F)cc(F)c3)cc2C12C=C(F)C(N)=N2 (centres unmarked) , report its measured pIC50.
6.19
